- Test description: Intrinsic clearance in mouse liver microsome
- Assay type: ADME
- Conditions used: liver microsomes
Criterion: microsomal CLint strictly less than 60 µL/min/mg. Met: condition met. Not met: condition not met.

{"Molecule": "Cn1cc(S(C)(=O)=O)cc1-c1c2c(=O)n(C)c(=O)n(CC3CC3)c2nn1Cc1ccnc2ccc(Cl)cc12", "Assigned category": "condition met"}
{"Molecule": "Cn1cc(S(C)(=O)=O)cc1-c1c2c(=O)n(C)c(=O)n(CC3CC3)c2nn1Cc1cn(C)c2ccc(Cl)cc12", "Assigned category": "condition met"}
{"Molecule": "Cn1cc(S(C)(=O)=O)cc1-c1c2c(=O)n(C)c(=O)n(CC3CC3)c2nn1Cc1c[nH]c2ccc(Cl)cc12", "Assigned category": "condition not met"}
{"Molecule": "Cc1oc(S(C)(=O)=O)cc1-c1c2c(=O)n(C)c(=O)n(CC3CC3)c2nn1Cc1cn(C)c2ccc(Cl)cc12", "Assigned category": "condition not met"}

Task: Bench note: check whether Cn1cc([S+](C)[O-])cc1-c1c2c(=O)n(C)c(=O)n(CC3CC3)c2nn1Cc1c[nH]c2ccc(Cl)cc12 (stereo not drawn) shows microsomal CLint below 60 µL/min/mg
Output: condition not met

Task: Does the reported microsomal CLint of Cn1cc(C#N)cc1-c1c2c(=O)n(C)c(=O)n(CC3CC3)c2nn1Cc1ccnc2ccc(Cl)cc12 stay below 60 µL/min/mg?
Output: condition met

Task: Is 60 µL/min/mg strictly greater than the molecule's reported microsomal CLint? molecule: Cn1c(=O)c2c(-c3ccc(S(C)(=O)=O)o3)n(Cc3ccnc4ccc(Cl)cc34)nc2n(CC2CC2)c1=O
Output: condition met
